- targetOfAssay: Sphingosine kinase 1 (Homo sapiens) (UniProt Q9NYA1)
- Sequence (Q9NYA1 whole entry): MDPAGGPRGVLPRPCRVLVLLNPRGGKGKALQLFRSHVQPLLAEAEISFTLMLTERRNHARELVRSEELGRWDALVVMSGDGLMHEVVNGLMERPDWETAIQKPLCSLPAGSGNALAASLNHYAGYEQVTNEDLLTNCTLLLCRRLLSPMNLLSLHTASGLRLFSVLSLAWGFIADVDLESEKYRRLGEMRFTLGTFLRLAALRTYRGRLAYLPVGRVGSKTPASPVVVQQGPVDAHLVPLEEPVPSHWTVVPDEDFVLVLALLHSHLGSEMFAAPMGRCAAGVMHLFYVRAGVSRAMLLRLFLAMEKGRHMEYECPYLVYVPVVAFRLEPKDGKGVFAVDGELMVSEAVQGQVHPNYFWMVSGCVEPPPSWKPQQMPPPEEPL
- conditionInfo: Sf9
- Description: Inhibition of human recombinant SPHK1 expressed in baculovirus-infected Sf9 cells in presence of sphingosine
property: Ki (µM)

Some solved entries appear below for comparison.
CCCCCCCCCCCCCCCCc1ccc(C(=O)NC2(C(=N)N)CC2)cc1 : 36
CCCCCCCCCCCCCCc1ccc(NC(=O)C2(C(=N)N)CC2)cc1 : 8.4

1. CCCCCCCCCCCCCCc1ccc(C(=O)NC2(C(=N)N)CC2)cc1
2. CCCCCCCCCCc1ccc(NC(=O)C2(C(=N)N)CC2)cc1
3. CCCCCCCCc1ccc(C(=O)NC2(C(=N)N)CC2)cc1
4. CCCCCCCCCCCCc1ccc(NC(=O)C2(C(=N)N)CC2)cc1
Ask | Order the 4 compounds from highest to lowest Ki. List the labels, following the order given in the request.
Reply | 3, 1, 2, 4

a. CCCCCCCCCCc1ccc(C(=O)NC2(C(=N)N)CC2)cc1
b. CCCCCCCCCCCCc1ccc(C(=O)NC2(C(=N)N)CC2)cc1
c. CCCCCCCCCCCCCCCCc1ccc(NC(=O)C2(C(=N)N)CC2)cc1
d. CCCCCCCCc1ccc(C(=O)N[C@@H](C)C(=N)N)cc1.Cl
Ask | Order the 4 compounds from highest to lowest Ki. List the labels, following the order given in the request.
Reply | d, c, a, b
(d: 55 µM, c: 30 µM, a: 5 µM, b: 0.2 µM)

====

- targetOfAssay: Sphingosine kinase 2 (Mus musculus)
- measurementDescription: Ratio of Ki to Km for mouse recombinant SPHK2 expressed in baculovirus-infected Sf9 cells
property: Ratio

Some solved entries appear below for comparison.
CCCCCCCCc1ccc(C(=O)NCC(=N)N)cc1 : 12
CCCCCCCCCCc1ccc(C(=O)NC2(C(=N)N)CC2)cc1 : 0.8

1. CCCCCCCCCCc1ccc(NC(=O)C2(C(=N)N)CC2)cc1
2. CCCCCCCCc1ccc(C(=O)N[C@H](C)C(=N)N)cc1
Ask | Ratio comparison. Which is larger, 1 or 2 ? Response format: the label of the selected entry.
Reply | 2
(2: 5, 1: 0.8)
